# protocol: Pharmacokinetic analysis in rat (i.v., s.c., p.o.)
# Format: in vivo
# conditions: male, Sprague-Dawley, plasma, po, 8 mg/kg, in the presence of 10% beta-cyclodextrin
measurementType: bioavailability (%)
Please respond with the number in % and leave the unit unwritten.

GET /value?item= `CCC[C@@H]1NC(=O)[C@@H](C(C)C)NC(=O)[C@@H](Cc2ccc(O)c(Cl)c2)N[C@@H](C)COc2ccccc2CCCNC1=O` &field=bioavailability returns 10

====

# protocol: Plasma concentrations of compound 552 in beagle dogs during the CID study
# Type: in vivo
# conditions: male, dog, iv, 2.5 mg/kg, low dose group 2.5 mg/kg/occasion, last day, read-out: average AUC0-t (converted)
measurementType: AUC(0-t) (ng·h/mL)
Please respond with the number in ng·h/mL and leave the unit unwritten.

GET /value?item= `CCC[C@@H]1NC(=O)[C@@H](C(C)C)NC(=O)[C@@H](Cc2ccc(O)c(Cl)c2)N[C@@H](C)COc2ccccc2CCCNC1=O` &field=AUC(0-t) returns 1380

src = patent US9133235B2
